# target_or_system: T1, PTPN21 PTP E1067D C1108S-EGFP (UniProt Q16825 872-1174, E1067D | C1108S)
# T1 sequence: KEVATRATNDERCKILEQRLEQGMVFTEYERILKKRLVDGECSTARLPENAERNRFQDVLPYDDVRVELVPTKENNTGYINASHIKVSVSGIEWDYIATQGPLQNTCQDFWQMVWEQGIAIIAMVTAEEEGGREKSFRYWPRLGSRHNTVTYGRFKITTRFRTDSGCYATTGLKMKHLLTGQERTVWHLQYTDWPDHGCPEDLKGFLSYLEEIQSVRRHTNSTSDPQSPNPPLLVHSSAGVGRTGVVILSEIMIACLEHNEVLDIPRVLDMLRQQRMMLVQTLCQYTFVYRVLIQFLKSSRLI
# run_description: MST
Where no end group is shown, it is not given here. [ ]: non-standard residue; d: D form. pY = N[C@@H](Cc1ccc(OP(=O)(O)O)cc1)C(=O)O
readout: Kd (µM)

binder: STEPQ[pY]QPGENL (also called Src pY530 synthetic peptide; Peptide Src pY530; source: synthetic peptide (ChinaPeptides Co. Ltd.)) [Src pY530 peptide]
result_number: 5.61
